subject_of_test: CYP2D6 (Homo sapiens, UniProt P10635)
Construct: purchased Discovery Labware (BD/Gentest); host or cells: insect cell expression system (membrane fractions)
Sequence (P10635 whole entry): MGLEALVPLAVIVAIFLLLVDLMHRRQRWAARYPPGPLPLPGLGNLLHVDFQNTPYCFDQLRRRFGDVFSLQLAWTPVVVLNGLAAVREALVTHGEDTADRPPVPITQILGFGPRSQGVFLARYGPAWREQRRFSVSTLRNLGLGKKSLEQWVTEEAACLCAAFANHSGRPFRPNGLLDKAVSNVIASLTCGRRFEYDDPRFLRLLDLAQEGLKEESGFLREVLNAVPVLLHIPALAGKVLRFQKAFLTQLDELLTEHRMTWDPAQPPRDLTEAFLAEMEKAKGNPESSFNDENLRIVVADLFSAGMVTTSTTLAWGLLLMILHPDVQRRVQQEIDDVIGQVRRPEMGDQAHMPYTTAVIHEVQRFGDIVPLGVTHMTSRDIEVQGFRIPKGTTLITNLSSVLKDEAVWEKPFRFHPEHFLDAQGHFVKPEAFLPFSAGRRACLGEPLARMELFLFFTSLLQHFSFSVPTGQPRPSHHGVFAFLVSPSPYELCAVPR
measurement_description: Screening inhibitors of CYP2D6 with luciferin-6-methylether ethylene glycol ester (IC50)
Assay type: biochemical
test_settings: substrate luciferin-6-methylether ethylene glycol ester
observable: IC50

INSERT INTO results (compound, observable, observed_value) VALUES
  ('N=C(N)N1CCc2ccccc2C1 [debrisoquine]', 'IC50', '77 µM');

----------
# reported light emission values; entries follow
subject_of_test: QuantiLum Luciferase (Photinus pyralis, UniProt P08659)
Construct: purchased Promega Corporation E170
Sequence (P08659 whole entry): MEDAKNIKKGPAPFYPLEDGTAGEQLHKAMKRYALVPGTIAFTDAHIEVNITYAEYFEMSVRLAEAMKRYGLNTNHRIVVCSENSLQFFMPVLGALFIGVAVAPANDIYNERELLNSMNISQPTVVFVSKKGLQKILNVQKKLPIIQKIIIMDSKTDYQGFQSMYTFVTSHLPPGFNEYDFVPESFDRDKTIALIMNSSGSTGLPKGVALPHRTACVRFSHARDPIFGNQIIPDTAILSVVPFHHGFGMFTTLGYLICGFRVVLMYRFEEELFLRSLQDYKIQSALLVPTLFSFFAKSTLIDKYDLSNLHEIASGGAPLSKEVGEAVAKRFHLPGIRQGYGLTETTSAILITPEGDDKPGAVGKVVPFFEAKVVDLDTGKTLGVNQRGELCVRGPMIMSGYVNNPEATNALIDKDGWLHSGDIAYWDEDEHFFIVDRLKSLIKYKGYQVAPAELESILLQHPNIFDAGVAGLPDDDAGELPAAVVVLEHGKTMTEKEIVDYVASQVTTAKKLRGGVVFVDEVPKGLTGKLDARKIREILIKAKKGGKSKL
measurement_description: Scaffolds: light emission of luciferin derivatives with QuantiLum luciferase alone, + Co A, + DTT, + Co A and DTT
Assay type: biochemical, firefly
test_settings: Derivative Conc. 1.07; Co A + DTT
Description: The DTT, Coenzyme A, and QuantiLum stock solutions are the same as those described herein. […] Reactions in these plates were initiated by addition of 50 µl of solution containing QuantiLum luciferase using a 12 channel micropipette. […] After addition of the enzyme solution to the last row on each plate, the plate was sealed and read on a Veritas luminometer.
observable: light emission values

INSERT INTO measurements (compound, observed_value) VALUES
  ('COc1ccc2nc(C3=N[C@@H](C(=O)O)CS3)sc2c1 [luciferin 6-methyl ether, D-luciferin 6'' methyl ether, reference compound]', 3180),
  ('COC(=O)[C@H]1CSC(c2ccc3cc(Oc4ccc(C(F)(F)F)cc4[N+](=O)[O-])ccc3n2)=N1', 1714),
  ('O=C(O)[C@H]1CSC(c2ccc3cc(Oc4ccc(C(F)(F)F)cc4[N+](=O)[O-])ccc3n2)=N1', 6964),
  ('O=C(O)[C@H]1CSC(c2nc3ccc(OCCO)cc3s2)=N1 [2hydroxyethoxyluciferin ether]', 22105),
  ('NCCCOc1ccc2nc(C3=N[C@@H](C(=O)O)CS3)sc2c1', 52637),
  ('CCN(CC)c1ccc2nc(C3=NC(C(=O)O)CS3)sc2c1 (centres unmarked)', 20592),
  ('CN(Cc1ccccc1)c1ccc2nc(C3=NC(C(=O)O)CS3)sc2c1 (centres unmarked)', 2037020),
  ('O=C(O)[C@H]1CSC(c2nc3ccc(OCc4ccccc4)cc3s2)=N1 [luciferin 6-benzyl ether, reference compound]', 51799);

----------
subject_of_test: QuantiLum Luciferase (Photinus pyralis)
Construct: purchased Promega Corporation E170
measurement_description: Scaffolds: light emission of luciferin derivatives with QuantiLum luciferase alone, + Co A, + DTT, + Co A and DTT
Assay type: biochemical, firefly
test_settings: Derivative Conc. 100; Co A + DTT
observable: light emission values

INSERT INTO assay_data (compound, observed_value) VALUES
  ('COC(=O)[C@H]1CSC(c2ccc3cc(Oc4ccc(C(F)(F)F)cc4[N+](=O)[O-])ccc3n2)=N1', 1990),
  ('NCCCOc1ccc2nc(C3=N[C@@H](C(=O)O)CS3)sc2c1', 1019425),
  ('CN(Cc1ccccc1)c1ccc2nc(C3=NC(C(=O)O)CS3)sc2c1 (stereo not shown)', 48409604),
  ('O=C(O)[C@H]1CSC(c2nc3ccc(OCc4ccccc4)cc3s2)=N1 [luciferin 6-benzyl ether, reference compound]', 64460);

----------
subject_of_test: QuantiLum Luciferase (Photinus pyralis)
Construct: purchased Promega Corporation E170
measurement_description: Scaffolds: light emission of luciferin derivatives with QuantiLum luciferase alone, + Co A, + DTT, + Co A and DTT
Type: biochemical, firefly
test_settings: Derivative Conc. 25; Co A + DTT
Each entry gets 0 if its light emission values stays under 70000, and 1 if its light emission values is 70000 or above.

INSERT INTO measurements (compound, label) VALUES
  ('CCN(CC)c1ccc2nc(C3=NC(C(=O)O)CS3)sc2c1 (stereo not shown) [diethylaminoluciferin]', 1),
  ('COc1ccc2nc(C3=N[C@@H](C(=O)O)CS3)sc2c1 [luciferin 6-methyl ether, D-luciferin 6'' methyl ether, reference compound]', 0),
  ('COC(=O)[C@H]1CSC(c2ccc3cc(Oc4ccc(C(F)(F)F)cc4[N+](=O)[O-])ccc3n2)=N1 [GST #4]', 0),
  ('O=C(O)[C@H]1CSC(c2nc3ccc(OCCO)cc3s2)=N1 [2hydroxyethoxyluciferin ether]', 0),
  ('CN(Cc1ccccc1)c1ccc2nc(C3=NC(C(=O)O)CS3)sc2c1 (stereo not shown) [methylbenzylaminoluciferin]', 1),
  ('O=C(O)[C@H]1CSC(c2ccc3cc(Oc4ccc(C(F)(F)F)cc4[N+](=O)[O-])ccc3n2)=N1 [GST #3]', 0),
  ('O=C(O)[C@H]1CSC(c2nc3ccc(OCc4ccccc4)cc3s2)=N1 [luciferin 6-benzyl ether, reference compound]', 1);

----------
subject_of_test: QuantiLum Luciferase (Photinus pyralis)
Construct: purchased Promega Corporation E170
measurement_description: Scaffolds: light emission of luciferin derivatives with QuantiLum luciferase alone, + Co A, + DTT, + Co A and DTT
Assay type: biochemical, firefly
test_settings: Derivative Conc. 6.25; Alone
observable: light emission values

INSERT INTO measurements (molecule, observable, observed_value) VALUES
  ('COC(=O)[C@H]1CSC(c2ccc3cc(Oc4ccc(C(F)(F)F)cc4[N+](=O)[O-])ccc3n2)=N1', 'light emission values', 1571),
  ('O=C(O)[C@H]1CSC(c2nc3ccc(OCCO)cc3s2)=N1 [2hydroxyethoxyluciferin ether]', 'light emission values', 14686),
  ('CCN(CC)c1ccc2nc(C3=NC(C(=O)O)CS3)sc2c1 (stereo not shown)', 'light emission values', 4009797),
  ('O=C(O)[C@H]1CSC(c2nc3ccc(OCc4ccccc4)cc3s2)=N1 [luciferin 6-benzyl ether, reference compound]', 'light emission values', 38838);

----------
# light emission values per entry
subject_of_test: QuantiLum Luciferase (Photinus pyralis)
Construct: purchased Promega Corporation E170
measurement_description: Scaffolds: light emission of luciferin derivatives with QuantiLum luciferase alone, + Co A, + DTT, + Co A and DTT
Format: biochemical, firefly
test_settings: Derivative Conc. 50; Co A
observable: light emission values

INSERT INTO assay_data (compound, observed_value) VALUES
  ('COC(=O)[C@H]1CSC(c2ccc3cc(Oc4ccc(C(F)(F)F)cc4[N+](=O)[O-])ccc3n2)=N1 [GST #4]', 1366),
  ('O=C(O)[C@H]1CSC(c2nc3ccc(OCCO)cc3s2)=N1 [2hydroxyethoxyluciferin ether]', 39320),
  ('CN(Cc1ccccc1)c1ccc2nc(C3=NC(C(=O)O)CS3)sc2c1 (centres unmarked) [methylbenzylaminoluciferin]', 78390592),
  ('O=C(O)[C@H]1CSC(c2ccc3cc(Oc4ccc(C(F)(F)F)cc4[N+](=O)[O-])ccc3n2)=N1 [GST #3]', 15440),
  ('CCN(CC)c1ccc2nc(C3=NC(C(=O)O)CS3)sc2c1 (centres unmarked) [diethylaminoluciferin]', 7206157),
  ('NCCCOc1ccc2nc(C3=N[C@@H](C(=O)O)CS3)sc2c1 [MAO-3, 6-Aminopropoxyluciferin]', 444494),
  ('COc1ccc2nc(C3=N[C@@H](C(=O)O)CS3)sc2c1 [luciferin 6-methyl ether, D-luciferin 6'' methyl ether, reference compound]', 2704),
  ('O=C(O)[C@H]1CSC(c2nc3ccc(OCc4ccccc4)cc3s2)=N1 [luciferin 6-benzyl ether, reference compound]', 38349);

----------
subject_of_test: QuantiLum Luciferase (Photinus pyralis, UniProt P08659)
Construct: purchased Promega Corporation E170
measurement_description: Scaffolds: light emission of luciferin derivatives with QuantiLum luciferase alone, + Co A, + DTT, + Co A and DTT
Assay type: biochemical, firefly
test_settings: Derivative Conc. 3.13; DTT
Method: The DTT, Coenzyme A, and QuantiLum stock solutions are the same as those described herein. […] Reactions in these plates were initiated by addition of 50 µl of solution containing QuantiLum luciferase using a 12 channel micropipette. […] After addition of the enzyme solution to the last row on each plate, the plate was sealed and read on a Veritas luminometer.
# light emission values values compiled below
observable: light emission values

INSERT INTO results (compound, subject_of_test, observed_value) VALUES
  ('O=C(O)[C@H]1CSC(c2nc3ccc(OCc4ccccc4)cc3s2)=N1 [luciferin 6-benzyl ether, reference compound]', 'QuantiLum Luciferase (Photinus pyralis, UniProt P08659)', 86445),
  ('O=C(O)[C@H]1CSC(c2ccc3cc(Oc4ccc(C(F)(F)F)cc4[N+](=O)[O-])ccc3n2)=N1 [GST #3]', 'QuantiLum Luciferase (Photinus pyralis, UniProt P08659)', 9106),
  ('CCN(CC)c1ccc2nc(C3=NC(C(=O)O)CS3)sc2c1 (stereo not shown) [diethylaminoluciferin]', 'QuantiLum Luciferase (Photinus pyralis, UniProt P08659)', 47727),
  ('CN(Cc1ccccc1)c1ccc2nc(C3=NC(C(=O)O)CS3)sc2c1 (stereo not shown) [methylbenzylaminoluciferin]', 'QuantiLum Luciferase (Photinus pyralis, UniProt P08659)', 8088743);
